- measurement_target: SARS-CoV-2 main protease M^pro (Severe acute respiratory syndrome coronavirus 2 (2019-nCoV) (SARS-CoV-2), UniProt P0DTD1)
- protocol_summary: Mpro enzyme activity assay (biochemical FRET-based)
- measurement_conditions: recombinant Mpro (Ser1-Gln306); EDANS/Dabcyl FRET substrate peptide 2 μM; 30 min pre-incubation; pH 7.3; read-out: Mpro inhibition IC50
pIC50: −log10 of the molar value.

>  <compound>
CNC(=O)C(=O)[C@H](CN1CCNC1=O)NC(=O)[C@H](CC(C)C)NC(=O)c1cc2c(OC)cccc2[nH]1 [compound 2]

>  <pIC50>
6.94

$$$$
